All figures here come from ChEMBL document CHEMBL3877267.

- Assayed System: Alpha-1B adrenergic receptor (Homo sapiens)
- Sequence (P35368 whole entry): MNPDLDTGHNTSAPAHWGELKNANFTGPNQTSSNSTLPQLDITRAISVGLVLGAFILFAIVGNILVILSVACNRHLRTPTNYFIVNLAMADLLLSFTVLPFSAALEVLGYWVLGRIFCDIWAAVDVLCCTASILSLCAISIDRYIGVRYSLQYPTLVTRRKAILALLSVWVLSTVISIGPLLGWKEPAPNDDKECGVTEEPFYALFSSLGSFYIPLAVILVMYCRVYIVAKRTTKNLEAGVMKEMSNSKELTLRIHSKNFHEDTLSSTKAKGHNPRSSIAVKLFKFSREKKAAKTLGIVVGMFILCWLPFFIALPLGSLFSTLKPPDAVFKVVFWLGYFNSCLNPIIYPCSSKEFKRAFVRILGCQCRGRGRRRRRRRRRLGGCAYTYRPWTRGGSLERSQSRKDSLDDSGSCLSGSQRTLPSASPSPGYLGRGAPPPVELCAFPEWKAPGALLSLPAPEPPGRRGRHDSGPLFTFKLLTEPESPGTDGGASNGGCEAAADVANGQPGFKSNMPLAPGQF
- Procedure Text: Displacement of [3H]prazosin from recombinant human alpha1b adrenergic receptor expressed in CHO cell membranes after 30 mins by TopCount liquid scintillation counting method
pKi: −log10 of the molar value.

>  <Compound>
COc1cccc(OC)c1OCCNCC1COC2(CCCCC2)O1 (centres undefined)

>  <Comparator>
<

>  <pKi>
6.00

$$$$
>  <Compound>
COc1ccccc1N1CCN(CC2CSC3(CCCCC3)O2)CC1 (centres undefined)

>  <Comparator>
=

>  <pKi>
6.72

$$$$
>  <Compound>
COc1ccccc1OCCNCC1CSC2(CCCCC2)O1 (centres undefined)

>  <Comparator>
=

>  <pKi>
6.66

$$$$
>  <Compound>
COc1ccccc1N1CCN(CC2CSC3(CCCCC3)S2)CC1 (centres undefined)

>  <Comparator>
=

>  <pKi>
6.39

$$$$
>  <Compound>
c1ccc(OCCNCC2CSC3(CCCCC3)O2)cc1 (centres undefined)

>  <Comparator>
=

>  <pKi>
6.36

$$$$
>  <Compound>
c1ccc(OCCNCC2CSC3(CCCCC3)S2)cc1 (centres undefined)

>  <Comparator>
=

>  <pKi>
6.26

$$$$
>  <Compound>
COc1ccccc1OCCNCC1COC2(CCCCC2)O1 (centres undefined)

>  <Comparator>
=

>  <pKi>
6.41

$$$$
>  <Compound>
COc1ccccc1OCCNCC1CSC2(CCCCC2)S1 (centres undefined)

>  <Comparator>
=

>  <pKi>
6.71

$$$$
>  <Compound>
c1ccc(OCCNCC2COC3(CCCCC3)O2)cc1 (centres undefined)

>  <Comparator>
=

>  <pKi>
6.01

$$$$

----------
- Procedure Text: Efflux ratio of apparent permeability from basolateral to apical over apical to basolateral side in MDCK2-MDR1 cells at 75 uM after 120 mins by UV-Visible spectrophotometric method
- Format: ADME, cell-based, Canis lupus familiaris
- Measurement Conditions: dog, MDCK-MDR1
Measure: efflux ratio at 2 h, 75 µM

>  <Compound>
COc1ccccc1OCCNCC1CSC2(CCCCC2)S1 (stereo unspecified)

>  <Measure>
efflux ratio at 2 h, 75 µM

>  <Result>
0.98

$$$$

----------
- Procedure Text: Apparent permeability from basolateral to apical side in MDCK2-MDR1 cells at 75 uM after 120 mins by UV-Visible spectrophotometric method
- Type: ADME, cell-based, Canis lupus familiaris, MDCK-II
- Measurement Conditions: dog, MDCK-MDR1
Measure: Papp B→A at 2 h, 75 µM (×10⁻⁶ cm/s)

>  <Compound>
COc1ccccc1OCCNCC1CSC2(CCCCC2)S1 (stereo unspecified)

>  <Measure>
Papp B→A at 2 h, 75 µM

>  <Quantitative Readout>
10.9

$$$$
